biological target: 5-HT1A receptors (Rattus norvegicus, UniProt P19327); experiment: biochemical; assay type: binding; settings: Receptor profile Ki, 5-HT1A
Sequence (P19327 whole entry): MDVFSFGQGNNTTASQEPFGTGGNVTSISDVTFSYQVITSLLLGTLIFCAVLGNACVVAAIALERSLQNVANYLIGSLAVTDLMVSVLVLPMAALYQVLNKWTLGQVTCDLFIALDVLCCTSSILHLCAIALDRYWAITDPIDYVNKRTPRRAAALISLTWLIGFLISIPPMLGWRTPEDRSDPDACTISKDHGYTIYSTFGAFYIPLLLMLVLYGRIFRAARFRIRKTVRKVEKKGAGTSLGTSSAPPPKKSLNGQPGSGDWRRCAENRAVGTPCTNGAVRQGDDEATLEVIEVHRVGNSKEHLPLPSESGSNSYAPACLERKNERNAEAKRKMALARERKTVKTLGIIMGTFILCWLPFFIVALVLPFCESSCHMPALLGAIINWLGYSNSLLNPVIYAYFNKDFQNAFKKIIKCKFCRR
result-type: Ki (nM)
Please reply with the bare figure in nM and do not write the unit itself.

Qu. Recorded Ki of COc1ccc2[nH]cc(CCN3CCC(CC(=O)c4ccc(F)cc4)C3)c2c1.Cl (stereo not shown) [Ex. 1, hydrochloride] , please.
Ans. 0.6

====

target: 5-HT1A receptors (Rattus norvegicus, UniProt P19327); assay: biochemical; type: binding; settings: ratio of Ki values D2 / 5-HT1A
Decide by D2 /5-HT1A: equal to or exceeding 60 means rule met, less means rule not met.

Solved cases (3 shown):
{"compound": "COc1ccc2[nH]cc(CCCN3CCC(C(=O)c4ccc(F)cc4)CC3)c2c1.Cl [Ref. A, reference compound]", "cat": "rule not met"}
{"compound": "Cl.O=C(CC1CCN(CCCc2c[nH]c3ccc(F)cc23)C1)c1ccc(F)cc1 (centres unmarked)", "cat": "rule not met"}
{"compound": "COc1ccc2[nH]cc(CCCN3CCC(CC(=O)c4ccc(F)cc4)C3)c2c1.Cl (racemic)", "cat": "rule not met"}

Qu. Say whether COc1ccc2[nH]cc(CCCN3CCCC(C(=O)c4ccc(F)cc4)CC3)c2c1.Cl (centres unmarked) shows D2 /5-HT1A of 60 or more.
Ans. rule met

Qu. Say whether COc1ccc2[nH]cc(CCCN3CCC(Cc4noc5cc(F)ccc45)C3)c2c1.Cl (centres unmarked) shows D2 /5-HT1A of 60 or more.
Ans. rule met

Qu. Say whether COc1ccc2[nH]cc(CCN3CCC(CC(=O)c4ccc(F)cc4)C3)c2c1.Cl (centres unmarked) shows D2 /5-HT1A of 60 or more.
Ans. rule met

Qu. Say whether COc1ccc2c(c1)c(CCCN1CCC(CC(=O)c3ccc(F)cc3)C1)cn2C.Cl (centres unmarked) shows D2 /5-HT1A of 60 or more.
Ans. rule not met

Qu. Say whether COc1ccc2c(c1)c(CCN1CCC(CC(=O)c3ccc(F)cc3)C1)cn2C.Cl (centres unmarked) shows D2 /5-HT1A of 60 or more.
Ans. rule not met
